Reference for the values: patent US20150315218A1

- TEST NAME: Single-dose toxicokinetic and tolerability study of prodrugs in dogs
- Type: in vivo, dog
- MEASUREMENT CONDITIONS: female, dog, plasma, po, 125 mg/kg, dog 4201F, day 8, Icb 125 mg/kg BID dry-filled capsules; emesis
MEASUREMENT KIND: AUC(0-inf) (µM·h)
All answers are understood in µM·h, so give the number only.

-- ask Determine its reported AUC(0-inf): COc1cnc(-n2cnc(C)n2)c2[nH]cc(C(=O)C(=O)N3CCN(C(=O)c4ccccc4)CC3)c12
-- reply 596

----------
- TEST NAME: Single-dose toxicokinetic and tolerability study of prodrugs in dogs
- Format: in vivo, dog
- MEASUREMENT CONDITIONS: male, dog, plasma, po, 46 mg/kg, dog 3101M, day 8, Ibb 46 mg/kg BID dry-filled capsules; emesis
MEASUREMENT KIND: AUC(0-inf) (µM·h)
Express the result in µM·h but write the number alone.

-- ask Provide measured AUC(0-inf) value, entry: O=C(C(=O)N1CCN(C(=O)c2ccccc2)CC1)c1c[nH]c2c(-n3ccnn3)ncc(F)c12
-- reply 478

----------
- TEST NAME: Single-dose toxicokinetic and tolerability study of prodrugs in dogs
- Format: in vivo, dog
- MEASUREMENT CONDITIONS: female, dog, plasma, oral, 125 mg/kg, dog 4201F, day 8, Icb 125 mg/kg BID dry-filled capsules; read-out: C24h
MEASUREMENT KIND: concentration at 24 h (nM)
Write the answer as a number in nM, unit excluded.

-- ask Return the recorded concentration at 24 h value; entry: COc1cnc(-n2cnc(C)n2)c2[nH]cc(C(=O)C(=O)N3CCN(C(=O)c4ccccc4)CC3)c12
-- reply 1960

----------
- TEST NAME: Single-dose toxicokinetic and tolerability study of prodrugs in dogs
- Assay type: in vivo, dog
- MEASUREMENT CONDITIONS: Table 14: IVa in female dogs, 90 mg/kg (71 IVa equiv.), Formulation Solution; Dogs #1201, #1202; 90 mg/kg
MEASUREMENT KIND: Cmax (µM)
Entry rule: numbers only, all in µM.

-- ask Given the compound COc1ncc(OC)c2c(C(=O)C(=O)N3CCN(C(=O)c4ccccc4)CC3)c[nH]c12 , write its reported Cmax.
-- reply 152

----------
- TEST NAME: IV and PO pharmacokinetic studies of prodrug salts (Iab, Ibb, Icb) in the dog, with historical parent data
- Format: in vivo, beagle dogs
- MEASUREMENT CONDITIONS: male, beagle, plasma, po, 7 mg/kg, read-out: T1/2 (converted)
MEASUREMENT KIND: half-life (h)
Your answer is read as h, so omit the unit and give the number.

-- ask Determine from records and report half-life for O=C(C(=O)N1CCN(C(=O)c2ccccc2)CC1)c1c[nH]c2c(-n3ccnn3)ncc(F)c12 [IVb]
-- reply 2.6

----------
- TEST NAME: Single-dose toxicokinetic and tolerability study of prodrugs in dogs
- Format: in vivo, dog
- MEASUREMENT CONDITIONS: male, dog, plasma, po, 92 mg/kg, dog 3101M, day 1, Ibb 92 mg/kg QD dry-filled capsules; emesis
MEASUREMENT KIND: AUC(0-inf) (µM·h)
Quick reminder: number only, in µM·h, skip the unit.

-- ask Provide measured AUC(0-inf) value, entry: O=C(C(=O)N1CCN(C(=O)c2ccccc2)CC1)c1c[nH]c2c(-n3ccnn3)ncc(F)c12
-- reply 111
